Task for the reader: assign each of the following compounds its reported phenotypically active.
Tested on: A549-CANX-COX4
experimental details: phenotypically active (imaging signature differs from DMSO and reproducible) at any of 0.3-9 uM (binary (1 = active, 0 = inactive)); higher = active
experimental conditions: treatment time: 24 h
Counter-ions that a name gives are not always drawn.
Numbers only.

Example entries begin here.
compound	phenotypically active
CCCN[C@H]1CCc2nc(N)sc2C1 [pramipexole]	0
CC1Cc2ccccc2N1NC(=O)c1ccc(Cl)c(S(N)(=O)=O)c1 (stereo not given) [indapamide]	0
CCCS(=O)(=O)Nc1ccc(F)c(C(=O)c2c[nH]c3ncc(Cl)cc23)c1F	0

Could you report phenotypically active for every entry in the following list?
1. O=C(O)CCN(O)C(=O)CCCCCCCCC1CC1
2. CN1C(=O)CC(c2ccccc2)C1=O (stereo not given) [phensuximide]
3. Nc1ncn([C@@H]2O[C@H](CO)[C@@H](O)[C@H]2O)c(=O)n1
4. COc1ccc(CCNCc2ccc(OCc3ccc(Cl)nc3)c(OC)c2)cc1OC [SBE 13 hydrochloride]
5. COc1c(C)cnc(Cn2cnc3c(Cl)nc(N)nc32)c1C
6. Cc1ccccc1Sc1ccc(/C=C2/SC(=S)NC2=O)cc1[N+](=O)[O-]
7. CNCCCN1c2ccccc2CCc2ccccc21

### Response
1. 0
2. 0
3. 1
4. 0
5. 1
6. 0
7. 0
